Every entry's value here was drawn from patent US20220112288A1.

target: T1, Recombinant human CD4 (R&D Systems, Cat. 10327-CD) (human, UniProt P01730 26-390, limits assumed)
T1 construct: Soluble analyte in the Octet assay
experiment_notes: BLI Octet, mAb on anti-mouse Fc sensor, CD4 100/50/25 nM, 1:1 global fit;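 also: antibodies loaded at 10 µg/mL, an unrelated mouse-derived antibody served as internal reference control, association and dissociation phases fitted after Savitzky-Golay smoothing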
Please provide measured Response for the entries that follow.
// no unit, no text: just the number

Query block: Form field: reported Response of 75110_04F22A (antibody, V domains shown, Tested as antibody purified from AlivaMab Mouse hybridoma supernatant (captured by anti-mouse IgG Fc)) VH: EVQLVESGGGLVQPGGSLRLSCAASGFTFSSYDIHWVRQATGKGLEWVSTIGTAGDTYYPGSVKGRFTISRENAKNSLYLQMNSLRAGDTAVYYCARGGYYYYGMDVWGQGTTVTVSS VL: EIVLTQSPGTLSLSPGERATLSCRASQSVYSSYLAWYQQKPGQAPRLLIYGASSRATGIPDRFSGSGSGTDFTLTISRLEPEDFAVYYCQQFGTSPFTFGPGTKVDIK
Result block: 0.05

Query block: Check 75110_04P08A (antibody, V domains shown, Tested as antibody purified from AlivaMab Mouse hybridoma supernatant (captured by anti-mouse IgG Fc)) VH: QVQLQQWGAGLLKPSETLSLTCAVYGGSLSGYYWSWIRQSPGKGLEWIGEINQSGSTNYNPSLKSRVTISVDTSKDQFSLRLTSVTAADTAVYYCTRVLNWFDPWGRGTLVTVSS VL: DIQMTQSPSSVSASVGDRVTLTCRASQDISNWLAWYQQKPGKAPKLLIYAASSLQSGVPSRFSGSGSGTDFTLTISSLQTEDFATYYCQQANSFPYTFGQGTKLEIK too.
Result block: 0.23

Query block: Then this binder: 75110_01A06A (antibody, V domains shown, Tested as antibody purified from AlivaMab Mouse hybridoma supernatant (captured by anti-mouse IgG Fc)) VH: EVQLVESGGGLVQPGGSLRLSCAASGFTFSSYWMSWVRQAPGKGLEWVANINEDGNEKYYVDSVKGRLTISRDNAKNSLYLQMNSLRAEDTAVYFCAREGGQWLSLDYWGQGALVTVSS VL: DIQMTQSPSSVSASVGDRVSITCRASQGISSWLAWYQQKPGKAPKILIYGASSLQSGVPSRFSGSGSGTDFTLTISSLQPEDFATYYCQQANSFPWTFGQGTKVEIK
Result block: 0.36
